test system: bloodstream forms of T. brucei; test: Trypanocidal activity, resazurin viability assay; format: cell-based, Trypanosoma brucei; conditions: Trypanosoma brucei, 72 h, bloodstream forms clone 427-221a; resazurin, 24 h + 48 h; read-out: T. brucei GI50
The reader will find reported GI50 values listed item by item below.
I only need the number, in µM, no unit after it.

Cc1ccc(C(=O)Nc2ccc(S(=O)(=O)O)c3cc(S(=O)(=O)O)cc(S(=O)(=O)O)c23)cc1NC(=O)c1cccc(NC(=O)Nc2cccc(C(=O)Nc3cc(C(=O)Nc4ccc(S(=O)(=O)O)c5cc(S(=O)(=O)O)cc(S(=O)(=O)O)c45)ccc3C)c2)c1 [Suramin, reference compound]    0.04
COCCOC(=O)c1cc(O)c(O)c(O)c1 [Compound 8, Gallic acid 2-methoxyethyl ester]    5.6
CCCCCOC(=O)c1cc(O)c(O)c(O)c1 [Compound 7, Gallic acid pentyl ester]    32.8
CCOC(=O)c1cc(O)c(O)c(O)c1 [Compound 2, Gallic acid ethyl ester]    27.9
COC(=O)c1cc(O)c(O)c(O)c1 [Compound 1, Gallic acid methyl ester]    24.5

Now turn to the next compound.
Prompt: # returns recorded GI50 (system: bloodstream forms of T. brucei) for CC(C)OC(=O)c1cc(O)c(O)c(O)c1 [Compound 3, Gallic acid isopropyl ester]
Completion: 8.4

---

system: HL-60 / T. brucei; experiment: Selectivity: ratio of cytotoxic to trypanocidal activity; format: cell-based, Trypanosoma brucei; details: GI50(HL-60)/GI50(T. brucei)
parameter: GI50 Ratio

Consider the reported GI50 Ratio for these compounds:
COCCOC(=O)c1cc(O)c(O)c(O)c1    17.7
COC(=O)c1cc(O)c(O)c(O)c1    >4.1
CCOC(=O)c1cc(O)c(O)c(O)c1    >3.6
Cc1ccc(C(=O)Nc2ccc(S(=O)(=O)O)c3cc(S(=O)(=O)O)cc(S(=O)(=O)O)c23)cc1NC(=O)c1cccc(NC(=O)Nc2cccc(C(=O)Nc3cc(C(=O)Nc4ccc(S(=O)(=O)O)c5cc(S(=O)(=O)O)cc(S(=O)(=O)O)c45)ccc3C)c2)c1 [Suramin, reference compound]    >2500
CCCCCOC(=O)c1cc(O)c(O)c(O)c1    >3.0

Prompt: Using the record for CC(C)OC(=O)c1cc(O)c(O)c(O)c1 , report its GI50 Ratio.
Completion: 10.5

---

Test system: HL-60 / T. brucei
Assay: Selectivity: ratio of cytotoxic to trypanocidal activity
Type: cell-based, Trypanosoma brucei
Details: MIC(HL-60)/MIC(T. brucei)
Procedure: Trypanocidal, leishmanicidal, and cytotoxic activities of gallic acid alkyl esters were determined with bloodstream forms of T. brucei (clone 427-221a), promastigotes of L. major (strain MHOM/IL/81/Friedlin [51]), and human myeloid HL-60 cell, respectively. The viability of cells was evaluated with the vital dye resazurin as previously described with some modifications. […]
parameter: MIC Ratio

Consider the reported MIC Ratio for these molecules:
CC(C)OC(=O)c1cc(O)c(O)c(O)c1    >1
Cc1ccc(C(=O)Nc2ccc(S(=O)(=O)O)c3cc(S(=O)(=O)O)cc(S(=O)(=O)O)c23)cc1NC(=O)c1cccc(NC(=O)Nc2cccc(C(=O)Nc3cc(C(=O)Nc4ccc(S(=O)(=O)O)c5cc(S(=O)(=O)O)cc(S(=O)(=O)O)c45)ccc3C)c2)c1 [Suramin, reference compound]    >100
COC(=O)c1cc(O)c(O)c(O)c1    >1

Prompt: # returns recorded MIC Ratio (system: HL-60 / T. brucei) for CC(C)CCOC(=O)c1cc(O)c(O)c(O)c1
Completion: >10

Prompt: # returns recorded MIC Ratio (system: HL-60 / T. brucei) for CCCCOC(=O)c1cc(O)c(O)c(O)c1
Completion: >10

---

test system: human myeloid HL-60 cells
The reader will find reported GI50 values listed item by item below.
I only need the number, in µM, no unit after it.

CC(C)OC(=O)c1cc(O)c(O)c(O)c1    87.9
CC(C)CCOC(=O)c1cc(O)c(O)c(O)c1    90.4
CCCOC(=O)c1cc(O)c(O)c(O)c1    82
COCCOC(=O)c1cc(O)c(O)c(O)c1    99.2

Prompt: # returns recorded GI50 (system: human myeloid HL-60 cells) for CCCCOC(=O)c1cc(O)c(O)c(O)c1
Completion: 74.8

---

tested on: HL-60 / T. brucei; assay: Selectivity: ratio of cytotoxic to trypanocidal activity; format: cell-based, Trypanosoma brucei; settings: MIC(HL-60)/MIC(T. brucei)
parameter: MIC Ratio

Consider the reported MIC Ratio for these compounds:
CCOC(=O)c1cc(O)c(O)c(O)c1    >1
CCCOC(=O)c1cc(O)c(O)c(O)c1    >10
COCCOC(=O)c1cc(O)c(O)c(O)c1    >1

Now turn to the next compound.
Prompt: Using the record for CCCCCOC(=O)c1cc(O)c(O)c(O)c1 , report its MIC Ratio.
Completion: >1

---

test system: bloodstream forms of T. brucei; test: Trypanocidal activity, resazurin viability assay; format: cell-based, Trypanosoma brucei; conditions: Trypanosoma brucei, 72 h, bloodstream forms clone 427-221a; resazurin, 24 h + 48 h; read-out: T. brucei GI50
parameter: GI50

Consider the reported GI50 for these molecules:
CCCOC(=O)c1cc(O)c(O)c(O)c1    ~3000 nM
CCCCOC(=O)c1cc(O)c(O)c(O)c1    ~3000 nM

Now turn to the next molecule.
Prompt: Using the record for CC(C)CCOC(=O)c1cc(O)c(O)c(O)c1 , report its GI50.
Completion: ~3000 nM

---

Form: system (human myeloid HL-60 cells), quantity (GI50), values below.

Cc1ccc(C(=O)Nc2ccc(S(=O)(=O)O)c3cc(S(=O)(=O)O)cc(S(=O)(=O)O)c23)cc1NC(=O)c1cccc(NC(=O)Nc2cccc(C(=O)Nc3cc(C(=O)Nc4ccc(S(=O)(=O)O)c5cc(S(=O)(=O)O)cc(S(=O)(=O)O)c45)ccc3C)c2)c1 [Suramin, reference compound]    > 100 µM
CCCCCOC(=O)c1cc(O)c(O)c(O)c1 [Compound 7, Gallic acid pentyl ester]    > 100 µM
CCOC(=O)c1cc(O)c(O)c(O)c1 [Compound 2, Gallic acid ethyl ester]    > 100 µM

Prompt: Using the record for COC(=O)c1cc(O)c(O)c(O)c1 [Compound 1, Gallic acid methyl ester] , report its GI50.
Completion: > 100 µM
